# Tested on: Staphylococcus sp.
# ASSAY REMARKS: in vitro antibacterial evaluation, MIC by broth dilution
# Format: cell-based
# REPORTED CONDITIONS: strain GC 4546; broth dilution, 18 hours at 35° C.
ENDPOINT LABEL: MIC Staphylococcus haemolyticus (GC 4546) (µg/mL)

COMPOUND	TARGET DESC	MEASUREMENT QUALIFIER	MEASURED RESULT
CN=C1N(C)CC(C(O)C2NC(=O)C(Cc3ccc(OC4OC(CO)C(OC5OC(CO)C(O)C(O)C5O)C(O)C4O)cc3)NC(=O)C(C(C)c3ccccc3)NC(=O)CNC(=O)C(CO)NC(=O)C(C(O)C3CN(C)C(=NC)N3C3OC(CO)C(O)C(O)C3O)NC2=O)N1C (centres unmarked)	Staphylococcus sp.	>	128
N=C1NCC(C(O)C2NC(=O)C(Cc3ccc(OC4OC(CO)C(OC5OC6COC(CCc7ccccc7)OC6C(O)C5O)C(O)C4O)cc3)NC(=O)C(CC3CCCCC3)NC(=O)CNC(=O)C(CO)NC(=O)C(C(O)C3CNC(=N)N3C3OC(CO)C(O)C(O)C3O)NC2=O)N1 (centres unmarked)	Staphylococcus sp.	=	0.5
CC(C)=CCCC(C)=CCCC(C)=CCOc1cccc(C2OCC3OC(OC4C(CO)OC(Oc5ccc(CC6NC(=O)C(C(C)c7ccccc7)NC(=O)CNC(=O)C(CO)NC(=O)C(C(O)C7CNC(=N)N7C7OC(CO)C(O)C(O)C7O)NC(=O)C(C(O)C7CNC(=N)N7)NC6=O)cc5)C(O)C4O)C(O)C(O)C3O2)c1 (centres unmarked)	Staphylococcus sp.	>	64
CC(c1ccccc1)C1NC(=O)CNC(=O)C(CO)NC(=O)C(C(O)C2CN(CCCCCCCCCCC(=O)O)C(=N)N2C2OC(CO)C(O)C(O)C2O)NC(=O)C(C(O)C2CNC(=N)N2)NC(=O)C(Cc2ccc(OC3OC(CO)C(OC4OC(CO)C(O)C(O)C4O)C(O)C3O)cc2)NC1=O (centres unmarked)	Staphylococcus sp.	>	128
CC(C1CCCCC1)C1NC(=O)CNC(=O)C(CO)NC(=O)C(C(O)C2CNC(=N)N2C2OC(CO)C(O)C(O)C2O)NC(=O)C(C(O)C2CNC(=N)N2)NC(=O)C(C[C@H]2CC[C@H](O)CC2)NC1=O (some centres unmarked) [Example 54a]	Staphylococcus sp.	=	128
